Sequence of the target: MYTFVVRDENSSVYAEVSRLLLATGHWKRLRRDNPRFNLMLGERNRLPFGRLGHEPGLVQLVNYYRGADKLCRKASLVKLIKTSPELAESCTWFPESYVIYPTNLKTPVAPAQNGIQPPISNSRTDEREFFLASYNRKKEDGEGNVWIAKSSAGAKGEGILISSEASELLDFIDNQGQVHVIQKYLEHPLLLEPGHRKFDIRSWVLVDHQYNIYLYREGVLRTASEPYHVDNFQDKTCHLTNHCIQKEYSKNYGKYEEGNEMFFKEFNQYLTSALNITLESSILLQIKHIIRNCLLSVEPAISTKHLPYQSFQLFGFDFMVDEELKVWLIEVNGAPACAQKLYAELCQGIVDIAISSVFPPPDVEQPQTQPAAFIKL
pKi: −log10 of the molar value.
ATTRIBUTE_MEASURED: pKi

Return reported pKi; argument: Nc1ccc(CC(N)C(=O)O)cc1 (stereo unspecified)
< 2.40
